B1: POU domain, class 4, transcription factor 1, residues 266 to 347; numbered along this chain, Q01851 (parent)
chain: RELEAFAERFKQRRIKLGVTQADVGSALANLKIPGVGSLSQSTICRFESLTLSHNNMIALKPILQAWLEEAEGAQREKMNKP

Variants of: B1
assay_method_text: abundance fitness (aPCA) (normalised: wild type 0, dead -1); higher = more abundant; growth selection in yeast, the domain comes from the species named
recorded_conditions: Homo sapiens
Documented abundance fitness across a set of variants

{"residue_change": "R9G", "abundance fitness": -0.015}
{"residue_change": "K11F", "abundance fitness": -0.627}
{"residue_change": "M57C", "abundance fitness": -0.268}
{"residue_change": "V36G", "abundance fitness": -0.142}
{"residue_change": "E2P", "abundance fitness": -0.437}
{"residue_change": "I15N", "abundance fitness": -0.113}
{"residue_change": "P62L", "abundance fitness": -0.524}
{"residue_change": "N80E", "abundance fitness": 0.078}
{"residue_change": "C45H", "abundance fitness": 0.089}
{"residue_change": "T51H", "abundance fitness": 0.003}
{"residue_change": "E77S", "abundance fitness": -0.024}
{"residue_change": "I44S", "abundance fitness": -0.68}
{"residue_change": "R76Q", "abundance fitness": -0.003}

The measured values listed here are drawn from the Human Domainome abundance scans (Beltran et al. 2025).
